# Lookup of reported Papp keyed by entry
Experiment: Apparent permeability across human Caco-2 cells
Type: ADME, cell-based
Square brackets hold non-standard residues; d marks the D form. Peptide text beside a SMILES is read from it. ξ: configuration not given here. ξGly(decyl) = CCCCCCCCCCC(N)C(=O)O
# unit: ×10⁻⁶ cm/s | format: bare number

- Compound: "CC[C@H](C)[C@H](NC(=O)[C@H](CCCNC(=N)N)NC(=O)[C@H](CC(C)C)NC(=O)CN)C(=O)N[C@@H](CC(C)C)C(=O)N[C@@H](CC(C)C)C(=O)N[C@@H](CC(C)C)C(=O)N[C@@H](CCCCN)C(=O)N[C@H](C(=O)O)C(C)C (H-GLRILLLKV-OH)"
  Papp [×10⁻⁶ cm/s]: 0.042

I have this compound here, CCCCCCCCCCC(N)C(=O)NCC(=O)N[C@@H](CC(C)C)C(=O)N[C@@H](CCCNC(=N)N)C(=O)N[C@H](C(=O)N[C@@H](CC(C)C)C(=O)N[C@@H](CC(C)C)C(=O)N[C@@H](CC(C)C)C(=O)N[C@@H](CCCCN)C(=O)N[C@H](C(=O)O)C(C)C)[C@@H](C)CC (stereo partly drawn) (H-[ξGly(decyl)]GLRILLLKV-OH) , and I need its recorded Papp.
0.11

"OC[C@@H](O)[C@@H](O)[C@H](O)[C@H](O)CO" , same question.
0.555
